target.of.assay: hemagglutinin (HA) of influenza A/New York/107/03 (PR8) (influenza A virus A/New York/107/03 (PR8))
test.description: cell-based or functional assay
Collected VNA IC50 values appear next to each entry.
Give your result in nM as a bare value.

# count of solved cases: 3
[
  {
    "binder": "SD3027 (VHH) VHH: EVQLLESGGGLVQAGGSLRLSCAASGRTYAMSWFRQAPGKEREFVSAINALGTRTYYADSVKGRFTISRDNSKNTLYLQMNSLRPEDTAVYYCTAQGQWRAAPVAVAAEYEFWGQGTQVTVSS",
    "readout.unit": "nM",
    "VNA IC50": 6
  },
  {
    "binder": "SD3096 (VHH) VHH: EVQLLESGGGLVQPGGSLRLSCAASGRTYAMGWFRQAPGKEREFVAHINALGTRTYYADSVKGRFTISRDNSKNTVYLQMNSLRPEDTAVYYCTAQGQWRAAPVAVAAEYEFWGQGTLVTVSS",
    "readout.unit": "nM",
    "VNA IC50": 5
  },
  {
    "binder": "SD3025 (VHH) VHH: EVQLLESGGGLVQPGGSLRLSCAASGRTYAMSWFRQAPGKEREFVAHINALGTRTYYADSVKGRFTISRDNSKNTLYLQMNSLRAEDTAVYYCTAQGQWRAAPVAVAAEYEFWGQGTQVTVSS",
    "readout.unit": "nM",
    "VNA IC50": 13
  }
]

Let us examine a further case.
Query: Supply recorded VNA IC50 for SD3028 (VHH) VHH: EVQLLESGGGLVQAGGSLRLSCAASGRTYAMSWFRQAPGKEREFVAHINALGTRTYYADSVKGRFTISRDNSKNTLYLQMNSLRPEDTAVYYCTAQGQWRAAPVAVAAEYEFWGQGTQVTVSS here.
Result: 26
